The entries below come with measured normalized growth values attached.
- assay details: chemical genetic growth profiling, strain panel (AID 1159580);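 further: tested at 20 µM; growth read once vehicle control cultures reached saturation at 30 °C; 1 = growth at the plate median or of vehicle wells; lower values mean less growth of the strain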
- condition info: S. cerevisiae deletion strains, growth OD, locus YML016C, strain PPZ1, active compounds read low
About 2,000 (36%) of roughly 5,500 compounds were called active. Another 18% or so got no clear call; they are omitted. The list shows a part of the results. Where a SMILES comes first, the peptide text is derived from it.
A bare number is all that is needed in reply.

Known results for molecules:
- molecule: "O=C(O)CCCCCCCC(=O)O"
  normalized growth: 0.991
- molecule: "C=NC(C(=O)NC1C(=O)N2C1SC(C)(C)C2C(=O)O)c1ccccc1 (centres undefined)"
  normalized growth: 1.01
- molecule: "CC(=O)N[C@@H](CC(=O)O)C(=O)N[C@@H](CCC(=O)O)C(=O)O (Ac-Asp-Glu-OH)"
  normalized growth: 1.02

Proceeding to the next molecule to report its normalized growth.
Query :: For the molecule shown here, NCCCCC(=O)O , give the reported normalized growth.
Result :: 1.03

====

- assay details: chemical genetic growth profiling, strain panel (AID 1159580)
- condition info: S. cerevisiae deletion strains, growth OD, locus YER110C, active compounds read low
In all, about 5,500 compounds went through this assay and about 2,000 (36%) were called active. Another 18% or so got no clear call; they are omitted. This is one part of the list.
The entries below come with measured normalized growth values attached.
A bare number is all that is needed in reply.

Known results for compounds:
- compound: "Cc1cccc(C)c1NC(=O)C1CCCCN1C (stereo not drawn)"
  obs value: 1.02
- compound: "CC(C)c1nc(N(C)S(C)(=O)=O)nc(-c2ccc(F)cc2)c1/C=C/[C@@H](O)C[C@@H](O)CC(=O)O"
  obs value: 0.999
- compound: "COc1cc2c(cc1OC)C1(O)C(=O)c3ccc(O)c(C(=O)O)c3OC1CO2 (stereo not drawn)"
  obs value: 0.979
- compound: "C[C@@H]1CC[C@H]2C(C)(C)C3CC12CC[C@@]3(C)O (stereo partly drawn)"
  obs value: 0.984
- compound: "O=C(O)C1CCCNC1 (stereo not drawn)"
  obs value: 1.02

Query :: For the compound shown here, CCC(C)C(=O)c1c(O)c(C)c2oc3c(C)c(O)c(C(=O)C(C)CC)c(O)c3c2c1O (stereo not drawn) , give the reported normalized growth.
Result :: 0.975

Query :: For the compound shown here, NC(N)=NCCCCN=C(N)N , give the reported normalized growth.
Result :: 0.99

Query :: For the compound shown here, Cc1ccc(C(=O)c2ccc(CC(=O)O)n2C)cc1 , give the reported normalized growth.
Result :: 0.969

====

- assay details: chemical genetic growth profiling, strain panel (AID 1159580)
- condition info: S. cerevisiae deletion strains, growth OD, locus YDL005C, strain med2, active compounds read low
About 2,000 (36%) of roughly 5,500 compounds were called active. About 18% were inconclusive and are not listed. The list shows a part of the results.
reported metric: normalized growth

Known results for compounds:
- compound: "O=C(O)CCCCCCCC(=O)O"
  normalized growth: "0.986 (inactive)"
- compound: "O=C(O)[C@@H](S)[C@@H](S)C(=O)O"
  normalized growth: "1 (inactive)"

Query :: For the compound shown here, NCCCCC(=O)O , give the reported normalized growth.
Result :: 1.02 (inactive)

Query :: For the compound shown here, COc1ccc2c(c1)OCC(Cc1ccc(OC)c(OC)c1)C2=O (stereo unspecified) , give the reported normalized growth.
Result :: 0.987 (inactive)

Query :: For the compound shown here, O=C(O)C(O)C(O)C(=O)O (stereo unspecified) , give the reported normalized growth.
Result :: 0.984 (inactive)

Query :: For the compound shown here, CCC(C)C(=O)c1c(O)c(C)c2oc3c(C)c(O)c(C(=O)C(C)CC)c(O)c3c2c1O (stereo unspecified) , give the reported normalized growth.
Result :: 0.979 (inactive)

====

- assay details: chemical genetic growth profiling, strain panel (AID 1159580);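 further: tested at 20 µM; growth read once vehicle control cultures reached saturation at 30 °C; 1 = growth at the plate median or of vehicle wells; lower values mean less growth of the strain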
- condition info: S. cerevisiae deletion strains, growth OD, locus YGL167C, strain pmr1, active compounds read low
About 2,000 (36%) of roughly 5,500 compounds were called active. Not shown: some 18% with an inconclusive outcome. Some of the results follow.
The entries below come with measured normalized growth values attached.
A bare number is all that is needed in reply.

Known results for compounds:
- compound: "NC(=O)NC1NC(=O)NC1=O (configuration not stated)"
  reported metric: "normalized growth"
  obs value: 1
- compound: "CC1(C)N([O-])[N+](=O)C1(C)Br (configuration not stated)"
  reported metric: "normalized growth"
  obs value: 0.987
- compound: "NC(=O)CS(=O)C(c1ccccc1)c1ccccc1 (configuration not stated)"
  reported metric: "normalized growth"
  obs value: 1
- compound: "CN(C)CCC(c1ccccc1)c1ccccn1 (configuration not stated)"
  reported metric: "normalized growth"
  obs value: 1.02

Query :: For the compound shown here, C=NC(C(=O)NC1C(=O)N2C1SC(C)(C)C2C(=O)O)c1ccccc1 (configuration not stated) , give the reported normalized growth.
Result :: 0.992

Query :: For the compound shown here, CC12CCCCC1(Br)[N+](=O)N2[O-] (configuration not stated) , give the reported normalized growth.
Result :: 0.993

====

- assay details: chemical genetic growth profiling, strain panel (AID 1159580);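 further: tested at 20 µM; growth read once vehicle control cultures reached saturation at 30 °C; 1 = growth at the plate median or of vehicle wells; lower values mean less growth of the strain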
- condition info: S. cerevisiae deletion strains, growth OD, locus YER111C, strain swi4, active compounds read low
In all, about 5,500 compounds went through this assay and about 2,000 (36%) were called active. Roughly 18% stayed inconclusive and do not appear here. Some of the results follow.
reported metric: normalized growth

Known results for compounds:
- compound: "CC(O)(P(=O)(O)O)P(=O)(O)O"
  normalized growth: "0.989 (inactive)"
- compound: "O=C(O)C1CCCNC1 (stereo not drawn)"
  normalized growth: "1.02 (inactive)"
- compound: "CN1CCC[C@@H]1CCO[C@](C)(c1ccccc1)c1ccc(Cl)cc1"
  normalized growth: "1.02 (inactive)"
- compound: "FC(F)(F)c1cccc(N2CCNCC2)c1"
  normalized growth: "0.999 (inactive)"

Query :: For the compound shown here, CC1(C)N([O-])[N+](=O)C1(C)Br (stereo not drawn) , give the reported normalized growth.
Result :: 0.996 (inactive)

Query :: For the compound shown here, O=C(O)C(O)C(O)C(=O)O (stereo not drawn) , give the reported normalized growth.
Result :: 0.988 (inactive)

Query :: For the compound shown here, CC(C)(S)[C@@H](N)C(=O)O , give the reported normalized growth.
Result :: 1.01 (inactive)

Query :: For the compound shown here, NC(C(=O)O)C(O)C(=O)O (stereo not drawn) , give the reported normalized growth.
Result :: 0.994 (inactive)

====

- assay details: chemical genetic growth profiling, strain panel (AID 1159580);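 further: tested at 20 µM; growth read once vehicle control cultures reached saturation at 30 °C; 1 = growth at the plate median or of vehicle wells; lower values mean less growth of the strain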
- condition info: S. cerevisiae deletion strains, growth OD, locus YLR268W, strain sec22, active compounds read low
Out of some 5,500 compounds screened, about 2,000 (36%) were called active. About 18% were inconclusive and are not listed. The list shows a part of the results.
The entries below come with measured normalized growth values attached.
A bare number is all that is needed in reply.

- compound: "O=c1oc2ccccc2cc1O"
  normalized growth: 0.997

Query :: For the compound shown here, O=C(O)CCC1NCC2CC1CN1CCCCC21 (centres undefined) , give the reported normalized growth.
Result :: 0.988

Query :: For the compound shown here, CC(=O)C1CC[C@H]2C3CC[C@H]4C[C@H](O)CC[C@]4(C)C3CC[C@]12C (some centres undefined) , give the reported normalized growth.
Result :: 0.977

Query :: For the compound shown here, CC(=O)O[C@H]1CC[C@@]2(C)C(C[C@@H](OC(C)=O)[C@]3(C)C2CC[C@@]2(C)[C@H](c4ccoc4)OC(=O)[C@H]4O[C@]423)C1(C)C (some centres undefined) , give the reported normalized growth.
Result :: 0.999

Query :: For the compound shown here, CCN1C[C@@]2(COC)C3[C@@H](OC)[C@H]4[C@@H]1[C@]3(C(OC)C[C@H]2O)C1C[C@@]2(O)[C@H](OC(=O)c3ccccc3)C1[C@]4(OC(C)=O)[C@@H](O)[C@@H]2OC (some centres undefined) , give the reported normalized growth.
Result :: 1.02

Query :: For the compound shown here, C[C@]12CCC3c4ccc(OC(=O)CCC(=O)O)cc4CCC3C1CCC2=O (some centres undefined) , give the reported normalized growth.
Result :: 0.976

Query :: For the compound shown here, CCCCCCCCCCCCCC(=O)OC1C(C)C2(O)C(C=C(CO)CC3(O)C(=O)C(C)=CC32)C2C(C)(C)C12OC(C)=O (centres undefined) , give the reported normalized growth.
Result :: 1.01

Query :: For the compound shown here, CC12CCC3C(=CCc4cc(O)ccc43)C1CCC2=O (centres undefined) , give the reported normalized growth.
Result :: 0.973

Query :: For the compound shown here, COP(=S)(OC)Oc1ccc([N+](=O)[O-])cc1 , give the reported normalized growth.
Result :: 0.993

Query :: For the compound shown here, O=C(O)C(O)C(O)C(=O)O (centres undefined) , give the reported normalized growth.
Result :: 0.971

Query :: For the compound shown here, NC(C(=O)O)C(O)C(=O)O (centres undefined) , give the reported normalized growth.
Result :: 1.07
